# Tested on: human breast cancer cell line (MCF-7)
# assay.method.text: MTT assay, cytotoxicity
# Format: cell-based
# measurement.conditions: MCF-7; 2500 μg/ml; 24 hours
# Experimental: Cancer cell lines were manipulated according to the method described by Sigounas et al.. […] The 3-[4,5-dimethylthiazol-2-yl]-2,5-diphenyltetrazolium bromide (MTT) colorimetric assay was used to examine the sensitivity of cells to tested compounds (as anticancer drugs), as previously described. […] The percentage of cell survival was calculated as follows: (1) Percentage of survival=O.D.treated cells/O.D.control cells×100. […]
quantity: survival percentage (mean ± SEM)

1) CCOC(=O)Cn1c(SCC(=O)Nc2ccc(C(=O)/C=C\c3ccccc3Cl)cc2)nc2sc3c(c2c1=O)CCN(C(=O)OCC)C3 [Compound 3a]
6.28 ± 0.003%
2) CCOC(=O)Cn1c(SCC(=O)Nc2ccc(C(=O)/C=C\c3cccc([N+](=O)[O-])c3)cc2)nc2sc3c(c2c1=O)CCN(C(=O)OCC)C3 [Compound 3c]
6.4 ± 0.003%
3) CCOC(=O)Cn1c(SCC(=O)Nc2ccc(C(=O)/C=C\c3cccc([N+](=O)[O-])c3)cc2)nc2sc3c(c2c1=O)CC(C)(C)NC3(C)C [Compound 3g]
19.0 ± 0.001%

====

# System: human liver cancer cell line (HepG2)
# assay.method.text: MTT assay, cytotoxicity
# Format: cell-based
# measurement.conditions: HepG2; 5000 μg/ml; 24 hours
quantity: survival percentage (mean ± SEM) (%)

1) CCOC(=O)Cn1c(SCC(=O)Nc2ccc(C(=O)/C=C\c3cccc([N+](=O)[O-])c3)cc2)nc2sc3c(c2c1=O)CC(C)(C)NC3(C)C
12.5
2) CCOC(=O)Cn1c(SCC(=O)Nc2ccc(C(=O)/C=C\c3ccccc3Cl)cc2)nc2sc3c(c2c1=O)CCN(C(=O)OCC)C3
19.1
3) CCOC(=O)Cn1c(SCC(=O)Nc2ccc(C(=O)/C=C\c3cccc([N+](=O)[O-])c3)cc2)nc2sc3c(c2c1=O)CCN(C(=O)OCC)C3
18.8
4) CCOCc1nc2sc3c(c2c(=O)n1CC(=O)Nc1ccc(C(=O)/C=C\c2cccc([N+](=O)[O-])c2)cc1)CCN(C(=O)OCC)C3
11.6
5) CCOC(=O)Cn1c(SCC(=O)Nc2ccc(C(=O)/C=C\c3cc(OC)c(OC)c(OC)c3)cc2)nc2sc3c(c2c1=O)CCN(C(=O)OCC)C3
12.1
6) CCOC(=O)N1CCc2c(sc3nc(SCC(=O)Nc4ccc(C(=O)/C=C\c5cc(OC)c(OC)c(OC)c5)cc4)[nH]c(=O)c23)C1
16.8

====

survival percentage (mean ± SEM) by entry:
# Tested on: human breast cancer cell line (MCF-7)
# assay.method.text: MTT assay, cytotoxicity
# Assay type: cell-based
# measurement.conditions: MCF-7; 10000 μg/ml; 24 hours
quantity: survival percentage (mean ± SEM) (%)

1. CCOC(=O)Cn1c(SCC(=O)Nc2ccc(C(=O)/C=C\c3ccccc3Cl)cc2)nc2sc3c(c2c1=O)CCN(C(=O)OCC)C3
6.0
2. CCOC(=O)Cn1c(SCC(=O)Nc2ccc(C(=O)/C=C\c3cc(OC)c(OC)c(OC)c3)cc2)nc2sc3c(c2c1=O)CCN(C(=O)OCC)C3
17.3
3. CCOC(=O)Cn1c(SCC(=O)Nc2ccc(C(=O)/C=C\c3cccc([N+](=O)[O-])c3)cc2)nc2sc3c(c2c1=O)CCN(C(=O)OCC)C3
5.9
4. CCOC(=O)N1CCc2c(sc3nc(SCC(=O)Nc4ccc(C(=O)/C=C\c5cc(OC)c(OC)c(OC)c5)cc4)[nH]c(=O)c23)C1
15.9
5. CCOC(=O)Cn1c(SCC(=O)Nc2ccc(C(=O)/C=C\c3cccc([N+](=O)[O-])c3)cc2)nc2sc3c(c2c1=O)CC(C)(C)NC3(C)C
15.3
6. CCOCc1nc2sc3c(c2c(=O)n1CC(=O)Nc1ccc(C(=O)/C=C\c2cccc([N+](=O)[O-])c2)cc1)CCN(C(=O)OCC)C3
4.6

====

# Test system: human liver cancer cell line (HepG2)
# assay.method.text: MTT assay, cytotoxicity
# Type: cell-based
# measurement.conditions: HepG2; 156.25 μg/ml; 24 hours
# Experimental: Cancer cell lines were manipulated according to the method described by Sigounas et al.. […] The 3-[4,5-dimethylthiazol-2-yl]-2,5-diphenyltetrazolium bromide (MTT) colorimetric assay was used to examine the sensitivity of cells to tested compounds (as anticancer drugs), as previously described. […] The percentage of cell survival was calculated as follows: (1) Percentage of survival=O.D.treated cells/O.D.control cells×100. […]
Rule: survival percentage (mean ± SEM) below 20% gives fulfilled, anything at or above gives not fulfilled.

1. CCOC(=O)N1CCc2c(sc3nc(SCC(=O)Nc4ccc(C(=O)/C=C\c5cc(OC)c(OC)c(OC)c5)cc4)[nH]c(=O)c23)C1 [Compound 3e]
not fulfilled
2. CCOCc1nc2sc3c(c2c(=O)n1CC(=O)Nc1ccc(C(=O)/C=C\c2cccc([N+](=O)[O-])c2)cc1)CCN(C(=O)OCC)C3 [Compound 3f]
not fulfilled
3. CCOC(=O)Cn1c(SCC(=O)Nc2ccc(C(=O)/C=C\c3ccccc3Cl)cc2)nc2sc3c(c2c1=O)CCN(C(=O)OCC)C3 [Compound 3a]
not fulfilled
4. CCOC(=O)Cn1c(SCC(=O)Nc2ccc(C(=O)/C=C\c3cccc([N+](=O)[O-])c3)cc2)nc2sc3c(c2c1=O)CC(C)(C)NC3(C)C [Compound 3g]
fulfilled
5. CCOC(=O)Cn1c(SCC(=O)Nc2ccc(C(=O)/C=C\c3cc(OC)c(OC)c(OC)c3)cc2)nc2sc3c(c2c1=O)CCN(C(=O)OCC)C3 [Compound 3b]
fulfilled
6. CCOC(=O)Cn1c(SCC(=O)Nc2ccc(C(=O)/C=C\c3cccc([N+](=O)[O-])c3)cc2)nc2sc3c(c2c1=O)CCN(C(=O)OCC)C3 [Compound 3c]
not fulfilled

====

The following compounds are listed with their measured survival percentage (mean ± SEM) values.
# Test system: human liver cancer cell line (HepG2)
# assay.method.text: MTT assay, cytotoxicity
# Assay type: cell-based
# measurement.conditions: HepG2; 1250 μg/ml; 24 hours
quantity: survival percentage (mean ± SEM) (%)

1. CCOC(=O)N1CCc2c(sc3nc(SCC(=O)Nc4ccc(C(=O)/C=C\c5cc(OC)c(OC)c(OC)c5)cc4)[nH]c(=O)c23)C1 [Compound 3e]
18.4
2. CCOC(=O)Cn1c(SCC(=O)Nc2ccc(C(=O)/C=C\c3cccc([N+](=O)[O-])c3)cc2)nc2sc3c(c2c1=O)CC(C)(C)NC3(C)C [Compound 3g]
12.5
3. CCOC(=O)Cn1c(SCC(=O)Nc2ccc(C(=O)/C=C\c3cccc([N+](=O)[O-])c3)cc2)nc2sc3c(c2c1=O)CCN(C(=O)OCC)C3 [Compound 3c]
20.1
4. CCOC(=O)Cn1c(SCC(=O)Nc2ccc(C(=O)/C=C\c3cc(OC)c(OC)c(OC)c3)cc2)nc2sc3c(c2c1=O)CCN(C(=O)OCC)C3 [Compound 3b]
12.7
5. CCOCc1nc2sc3c(c2c(=O)n1CC(=O)Nc1ccc(C(=O)/C=C\c2cccc([N+](=O)[O-])c2)cc1)CCN(C(=O)OCC)C3 [Compound 3f]
12.6
6. CCOC(=O)Cn1c(SCC(=O)Nc2ccc(C(=O)/C=C\c3ccccc3Cl)cc2)nc2sc3c(c2c1=O)CCN(C(=O)OCC)C3 [Compound 3a]
20.5

====

The compounds listed here are annotated with their melting point.
quantity: melting point

1. CCOC(=O)Cn1c(SCC(=O)Nc2ccc(C(=O)/C=C\c3ccccc3Cl)cc2)nc2sc3c(c2c1=O)CCN(C(=O)OCC)C3 [Compound 3a]
181 to 182 °C
2. CCOC(=O)N1CCc2c(sc3nc(SCC(=O)Nc4ccc(C(=O)/C=C\c5cc(OC)c(OC)c(OC)c5)cc4)[nH]c(=O)c23)C1 [Compound 3e]
167 to 168 °C
3. CCOC(=O)Cn1c(SCC(=O)Nc2ccc(C(=O)/C=C\c3cccc([N+](=O)[O-])c3)cc2)nc2sc3c(c2c1=O)CC(C)(C)NC3(C)C [Compound 3g]
194 to 195 °C

====

quantity: melting point

1. CCOCc1nc2sc3c(c2c(=O)n1CC(=O)Nc1ccc(C(=O)/C=C\c2cccc([N+](=O)[O-])c2)cc1)CCN(C(=O)OCC)C3
178 to 179 °C
2. CCOC(=O)Cn1c(SCC(=O)Nc2ccc(C(=O)/C=C\c3cc(OC)c(OC)c(OC)c3)cc2)nc2sc3c(c2c1=O)CCN(C(=O)OCC)C3
172 to 173 °C
3. CCOC(=O)Cn1c(SCC(=O)Nc2ccc(C(=O)/C=C\c3cccc([N+](=O)[O-])c3)cc2)nc2sc3c(c2c1=O)CCN(C(=O)OCC)C3
189 to 190 °C
